Source: patent US20210380699A1

Below: a set of entries, each annotated with reported pIC50.
MEASURED TARGET: T1, Human PD-L1 His (human PD-L1 ECD with C-terminal His tag) (human, UniProt Q9NZQ7 19-238)
T1 construct: Biotinylated in ELISA and AlphaScreen assays; also called hPD-L1-his; biotinylated PD-L1 his
T1 sequence (Q9NZQ7 19-238 limits assumed): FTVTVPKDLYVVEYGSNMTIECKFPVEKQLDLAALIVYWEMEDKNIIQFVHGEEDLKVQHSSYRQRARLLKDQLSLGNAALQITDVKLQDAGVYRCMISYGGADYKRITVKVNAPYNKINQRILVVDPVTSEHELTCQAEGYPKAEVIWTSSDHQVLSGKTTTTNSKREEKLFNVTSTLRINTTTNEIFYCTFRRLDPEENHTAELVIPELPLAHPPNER
PROCEDURE DETAILS: ELISA, biotin-PD-L1 to plate-bound PD-1, antibody titrated
Expect pIC50 as a plain number equal to -log10 of the molar concentration.

# BINDER, pIC50
rows = [
    ("413D08 (antibody, human IgG1, kappa, V domains shown) VH: QVQLVESGGGVVQPGRSLRLSCAASGFTFRIYGMHWVRQAPGKGLEWVAVIWYDGSNKYYADSVKGRFTISRDNSDNTLYLQMNSLRAEDTAVYYCARDMDYFGMDVWGQGTTVTVSS VL: DLQMTQSPSSLSASVGDRVTITCRASQGIRNDLGWYQQKPGKAPKRLIYAASSLQSGVPSRFSGSGSGTEFTLTISSLQPEDFATYYCLQHNSYPRTFGQGTKVEIKR", 8.92),
]

Request: What value of pIC50 has been reported for the following binder? 416E01 (human IgG1) (antibody, V domains shown) VH: EVQLAESGGGLVQPGGSLRLSCAASGFTFSNYAMSWVRQTPGKGLEWVSAISFSGGTTYYADSVKGRFTISRDNSKNTLYLHMNSLRADDTAVYYCAKDEAPAGATFFDSWGQGTLVTVSS VL: DIQMTQSPSSVSASVGDRVTITCRASQGIRRWLAWYQQKPGKAPKLLISGASSLQSGVPSRFSGSGSGTDFTLIITSLQPEDFATYYCQQANSFPITFGQGTRLEIKR
Response: 8.76
